Source listed as the supplement of paper PMC9170038.

System: MS2 coat protein
protocol_notes: apparent KD of MS2 coat protein; designed switch direction (-1 OFF switch, 1 ON switch): -1; higher = weaker reporter binding
recorded_conditions: Eterna round: R95; input ligand: microRNA oligo, concentration not stated
Listed below: apparent KD of MS2 coat protein values for each entry.
Quick note: give the figure in µM, leave out the unit.

>  <sequence_string>
CCGCAAAUGCAGGAUAUCGUAUCGGAUACGAUACGAGAAGGGUAUACAUGAGGAUCACCCAUGUGUCCUAGCGG [Fiskers Ex 6 - 45] (puzzle: Exclusion 6)

>  <units_text>
µM

>  <apparent KD of MS2 coat protein>
0.0203

$$$$
>  <sequence_string>
UUUUUGUCAGGAUAUGAGUAGUAGAACAAUAGUACUACUACUCAGAAGGGACAUGAGGAUCACCCAUGUUCCUC [Fiskers Ex 4 Super stable 44 mod 18] (puzzle: Exclusion 4)

>  <units_text>
µM

>  <apparent KD of MS2 coat protein>
0.0144

$$$$

Shifting focus to the sequence that follows.
Query AGGGAUAAAGGAUAUACAUGAGGAUCACCCAUGUUGAGGAAAGUGAGAUGAGGAGGAAGUAGAAGGUUAGGCGA [JR_Exclu3_Sub085] (puzzle: Exclusion 3) yields apparent KD of MS2 coat protein of 0.0377
